Test system: MDA-MB-231 breast
protocol_notes: NCI-60 one-dose screen, 48 h (100 = growth as untreated, 0 = no growth, -100 = all killed)
recorded_conditions: 10 µM unless noted
About 83,000 compounds went through this panel and 20% of them were active in at least one assay; those are over-represented in the sample as a whole. Active and inactive are the calls of the source. The calls were made as follows: active = growth percent below 10; inactive = the rest.
measured_parameter: growth

Below, 6 molecules whose answers are already recorded.
>  <molecule>
CCCCCCCCCCCCCCCCCC1=NC(C)(CO)CO1 (stereo unspecified)

>  <measured_target>
MDA-MB-231 breast

>  <growth>
88.8% (inactive)

$$$$
>  <molecule>
O=C1CSC(c2ccccc2Cl)N1c1nnc(Cn2nnc3ccccc32)o1 (stereo unspecified)

>  <measured_target>
MDA-MB-231 breast

>  <growth>
77.1% (inactive)

$$$$
>  <molecule>
CC(C)OP(=O)(OC(C)C)c1ncc(-c2ccc(C(F)(F)F)cc2)c(NC2CCCCCC2)n1

>  <measured_target>
MDA-MB-231 breast

>  <growth>
-8.63% [33.3 µM] (active)

$$$$
>  <molecule>
O=C(NCCCl)NCCN1c2nc3ccccc3cc2Sc2cc3ccccc3nc21

>  <measured_target>
MDA-MB-231 breast

>  <growth>
39.5% (inactive)

$$$$
>  <molecule>
COc1ccc(-c2nnc3c4[nH]cnc4ncn23)c(OC)c1

>  <measured_target>
MDA-MB-231 breast

>  <growth>
29% (inactive)

$$$$
>  <molecule>
COc1cc(C(=O)/C=C/c2cccc(Nc3ccnc4cc(Cl)ccc34)c2)cc(OC)c1OC

>  <measured_target>
MDA-MB-231 breast

>  <growth>
-5.45% (active)

$$$$

Can you look up the measured growth of "Cc1ccc2nc(SCC(=O)Nc3ccc(-c4nc5ccccc5s4)c(Cl)c3)[nH]c2c1" for me? 113% (inactive)

Requested field: growth. Item: "COc1cc(/C=C2\CN(S(=O)(=O)c3ccc(C)cc3)C/C(=C\c3cc(CN4CCOCC4)c(O)c(OC)c3)C2=O)cc(CN2CCOCC2)c1O" 5.67% (active)

Please report the recorded growth for "C[C@]12CC[C@H](O)CC1=CC[C@@H]1[C@@H]2CC[C@]2(C)C(c3cccnc3)=CC[C@@H]12" . 85.1% (inactive)

---

Test system: HCT-116 colon
protocol_notes: NCI-60 one-dose screen, 48 h
recorded_conditions: 10 µM unless noted
About 83,000 compounds went through this panel and 20% of them were active in at least one assay; those are over-represented in the sample as a whole. Calls of active or inactive are those of the source. The calls were made as follows: active = growth percent below 10; inactive = the rest.
Please state which outcome applies, choosing from active, inactive

Test call for this compound, please: "COCCCNS(=O)(=O)c1ncnc2nc[nH]c12" inactive

Recorded test outcome, item "COc1ccc(CC(=O)Nc2nn3c(-c4cc(C(F)(F)F)cc(C(F)(F)F)c4)nnc3s2)cc1" inactive

Recorded test outcome, item "CCOC(=O)CNC(=O)C1(NC(=O)CNC(=O)OCc2ccccc2)CCCC1" inactive

What did this assay record as the result for "O=C(Nc1ccc(Cl)cc1)Nc1nc2ccc(OC(F)(F)F)cc2o1" ? inactive

---

Test system: SN12C renal
protocol_notes: NCI-60 one-dose screen, 48 h
recorded_conditions: 10 µM unless noted
Compounds without any hit were thinned out: in the full panel of roughly 83,000, 20% have a hit. Active and inactive are the calls of the source. Rule for the calls: active = growth percent below 10; inactive = the rest.
Allowed answers: true (1) = active, false (0) = inactive

Reference set, count: 5
>  <molecule>
O=CN1N=C(c2ccc(Nc3ccnc4cc(Cl)ccc34)cc2)CC1c1ccc(Cl)cc1 (stereo not drawn)

>  <assigned_label>
false (0)

$$$$
>  <molecule>
O=C1c2cccc3c([N+](=O)[O-])ccc(c23)C(=O)N1CCCCl

>  <assigned_label>
true (1)

$$$$
>  <molecule>
CC(=O)N1N=C(c2ccc(Cl)cc2)CC1c1c(C)nn(-c2ccccc2)c1N(C)Cc1ccccc1 (stereo not drawn)

>  <assigned_label>
false (0)

$$$$
>  <molecule>
CCCCCCCCCCCCC1CCCC(C)C1 (stereo not drawn)

>  <assigned_label>
false (0)

$$$$
>  <molecule>
O=C(CN1CCN(c2ccc(Cl)cc2)CC1)N1CCN(c2nnc(-c3ccccc3)c(-c3ccccc3)n2)CC1

>  <assigned_label>
false (0)

$$$$

Per the assay record, what outcome was assigned to "N[C@H](CS)C(=O)O" ? false (0)

Tell me the recorded outcome of this test for CC1CN(C2CCCCC2)C(=O)NC1=O (stereo not drawn) . false (0)

For this molecule, state the assay outcome: "Oc1ccccc1/C=N/N1CCCCCC1" false (0)

---

Tested on: EKVX NSCLC
protocol_notes: NCI-60 one-dose screen, 48 h (100 = growth as untreated, 0 = no growth, -100 = all killed)
recorded_conditions: 10 µM unless noted
The panel holds about 83,000 compounds, 20% with a hit somewhere; the sample as a whole holds those more often. The source made the active and inactive calls. The calls were made as follows: active = growth percent below 10; inactive = the rest.
Reported values of growth for individual entries

>  <molecule>
O=C(O)CNC(=O)C1(N2C(=O)c3ccccc3C2=O)CCCC1

>  <assay_result>
104% (inactive)

$$$$
>  <molecule>
CCC(C)C1NC(=O)C(CCNCS(=O)(=O)O)NC(=O)C(NC(=O)C(CCNCS(=O)(=O)O)NC(=O)C(NC(=O)C(CCNCS(=O)(=O)O)NC(=O)CCCCC(C)C)C(C)O)CCNC(=O)C(C(C)O)NC(=O)C(CCNCS(=O)(=O)O)NC(=O)C(CCNCS(=O)(=O)O)NC(=O)C(C(C)CC)NC1=O (stereo not drawn)

>  <assay_result>
83.7% (inactive)

$$$$

What does the data say about its growth? Entry: "O=C(NN1C(=O)c2cc(C(=O)O)c(C(=O)O)cc2C1=O)c1ccncc1" 108% (inactive)

---

System: OVCAR-4 ovarian
protocol_notes: NCI-60 one-dose screen, 48 h (100 = growth as untreated, 0 = no growth, -100 = all killed)
recorded_conditions: 10 µM unless noted
About 83,000 compounds went through this panel and 20% of them were active in at least one assay; those are over-represented in the sample as a whole.
Below is a list of entries, each paired with its recorded growth value.
Note: unit % is implicit; provide only the numeric part.

Illustrative cases are given below, each with its answer.
>  <molecule>
CSc1nc2nc3c(nc2c(=O)n1C)C(=O)c1ccccc1C3=O

>  <assay_result>
-53

$$$$
>  <molecule>
CC(NC(N)=S)c1ccccc1 (stereo unspecified)

>  <assay_result>
106

$$$$
>  <molecule>
O=C1NCCc2c1noc2-c1ccccc1

>  <assay_result>
114

$$$$
>  <molecule>
Cc1ccccc1NC(=O)N/C(N)=N/c1nc2ccccc2s1

>  <assay_result>
65

$$$$
>  <molecule>
N#CSCC1CC(O)(c2ccccc2)C(c2ccccc2)C(c2ccc(Cl)cc2)O1 (stereo unspecified)

>  <assay_result>
-32.7

$$$$
>  <molecule>
Clc1ccc2nc(CI)c(CI)nc2c1

>  <assay_result>
100

$$$$
>  <molecule>
COc1cccc(N2CCN(CC(=O)N3CCN(c4nnc(-c5ccc(Cl)cc5)c(-c5ccc(Cl)cc5)n4)CC3)CC2)c1

>  <assay_result>
57.9

$$$$
>  <molecule>
COc1ccc(/C=C/C(=O)c2cccc(NS(C)(=O)=O)c2)cc1

>  <assay_result>
81.5

$$$$
>  <molecule>
COc1ccc(/C=C2/SC(=Nc3c(C)nn(-c4ccccc4)c3N)NC2=O)cc1

>  <assay_result>
51.9

$$$$
>  <molecule>
Cc1sc2nc(N3CCCCC3)[nH]c(=O)c2c1C

>  <assay_result>
100

$$$$

I'd like to know its growth. The molecule in question is "COc1ccc(CC(=O)Nc2nn3c(-c4cc(C(F)(F)F)cc(C(F)(F)F)c4)nnc3s2)cc1" 66.3

---

Examples of compounds with documented growth follow.
System: EKVX NSCLC
protocol_notes: NCI-60 one-dose screen, 48 h (100 = growth as untreated, 0 = no growth, -100 = all killed)
recorded_conditions: 10 µM unless noted
Compounds without any hit were thinned out: in the full panel of roughly 83,000, 20% have a hit.
// units = %; emit number, no label

>  <compound>
O=C(Nc1cccc(Cl)c1)Nc1cccc(Cl)c1

>  <assay_result>
72.5

$$$$
>  <compound>
Cc1ccc(S(=O)(=O)N2CCN(C(=O)CSc3nc4ccc(C)cc4[nH]3)CC2)cc1

>  <assay_result>
97

$$$$

// below: growth requested for another compound
Which growth value is on record for "CC(C)Sc1nc(Cl)c(C#N)c(-c2ccc(F)cc2)n1" ? 99.2

---

System: DU-145 prostate
protocol_notes: NCI-60 one-dose screen, 48 h
recorded_conditions: 10 µM unless noted
This is part of a sample that, as a whole, favours compounds with a hit. Of some 83,000 tested, about 20% had one in any assay. Active and inactive are the calls of the source. How the source made its calls: active means growth percent below 10; inactive means the rest.
Outcome field: choose from active, inactive

A selection of reference data follows.
>  <molecule>
Cc1ccc(C(NC(=O)c2ccccc2)c2ccc3cccnc3c2O)cc1 (stereo unspecified)

>  <assigned_label>
inactive

$$$$
>  <molecule>
Cc1cc(C)c2c(N)c3cccc(C)c3nc2n1

>  <assigned_label>
active

$$$$
>  <molecule>
COc1c(Br)cc(C(c2cc(Br)c(OC)c(Br)c2)c2ccccc2C(=O)O)cc1Br

>  <assigned_label>
inactive

$$$$
>  <molecule>
O=c1ncc(-c2ccc(C(F)(F)F)cc2)c(NC2CCCCCC2)[nH]1

>  <assigned_label>
inactive

$$$$
>  <molecule>
COP(=O)(OC)C(c1ccccc1)(c1ccccc1)c1ccccc1

>  <assigned_label>
inactive

$$$$

Lab log entry: "O=C(Nc1ccc2c(c1)C(=O)c1ccccc1-2)c1ccccc1" — outcome as called in the assay? inactive

Hey, what did the test say about "CC(C)CNc1nc(N=[N+]=[N-])nc(NCC(C)C)n1" ? inactive

What did the test return for CC(=O)N1N=C(c2ccc(Nc3ccnc4cc(Cl)ccc34)cc2)CC1c1ccc(Cl)cc1 (stereo unspecified) ? inactive

For "CC(=O)O[C@H]1CC[C@@]2(C)C(=CC[C@@H]3[C@@H]2CC[C@]2(C)C(c4cccnc4)=CC[C@@H]32)C1" , which call appears in the assay record? inactive

Please share the test call associated with "Cc1[nH]ccc2cc3nc4ccccc4c3cc12" . inactive

Could you check what this test reported for "CCCCCCCCCCNCCSS(=O)(=O)O" ? inactive
